Test system: EPHB1;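 further: KINOMEscan kinase panel screen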
recorded_conditions: concentration: 1 μM, replicates: in singlicate; n = 1
Label false (0) if %Inh falls below 9%; label true (1) in every other case.

INSERT INTO assay_data (molecule, class_label) VALUES
  ('COc1cc2ncn(-c3cc(OCCCc4ccccc4)c(C(N)=O)s3)c2cc1OC', 'false (0)');

q: State whether the measured %Inh reaches 9%, counting equality as reaching it, for `Cc1cc(Nc2nc(-c3cccc(C)n3)nc3ccccc23)ccn1`
a: false (0)

q: State whether the measured %Inh reaches 9%, counting equality as reaching it, for `O=c1cc(N2CCOCC2)nc2n(Cc3ccc(F)c(Cl)c3)ccn12`
a: false (0)

q: State whether the measured %Inh reaches 9%, counting equality as reaching it, for `O=C(Nc1n[nH]c2nc(-c3ccccc3)c(Cl)cc12)C1CC1`
a: false (0)

q: State whether the measured %Inh reaches 9%, counting equality as reaching it, for `CN1C(=O)C(Nc2ccccc2)=C(c2ccccc2)C1=O`
a: true (1)

q: State whether the measured %Inh reaches 9%, counting equality as reaching it, for `Cc1ccc(Oc2ccc(Nc3ncnc4cc[nH]c34)cc2C)cn1`
a: false (0)

q: State whether the measured %Inh reaches 9%, counting equality as reaching it, for `Cc1ccc(-c2ccc3c(ccc4sc5c(c43)NC[C@@H](C)N=C5N(C)C)n2)cn1`
a: false (0)
